- Test system: RARa homodimer (NR concentration 270 nM)
- measurement_protocol: PBM binding z-score (relative to random genomic background probes); higher = stronger binding; sequences stand for … in GC…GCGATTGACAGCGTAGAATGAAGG
Task for the reader: assign each of the following sequences its reported PBM binding z-score.
One number for each entry.

Field: example entries. Status: answers known.
{"seq_string": "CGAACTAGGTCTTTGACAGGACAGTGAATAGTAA", "system": "RARa homodimer (NR concentration 270 nM)", "property_name": "PBM binding z-score", "obs_value": -0.136}
{"seq_string": "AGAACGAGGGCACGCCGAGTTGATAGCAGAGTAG", "system": "RARa homodimer (NR concentration 270 nM)", "property_name": "PBM binding z-score", "obs_value": -0.438}
{"seq_string": "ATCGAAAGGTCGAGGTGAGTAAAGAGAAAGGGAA", "system": "RARa homodimer (NR concentration 270 nM)", "property_name": "PBM binding z-score", "obs_value": 0.627}
{"seq_string": "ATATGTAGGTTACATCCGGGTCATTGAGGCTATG", "system": "RARa homodimer (NR concentration 270 nM)", "property_name": "PBM binding z-score", "obs_value": 0.615}
{"seq_string": "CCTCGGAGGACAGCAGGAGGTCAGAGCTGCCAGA", "system": "RARa homodimer (NR concentration 270 nM)", "property_name": "PBM binding z-score", "obs_value": 0.518}

Quick request: PBM binding z-score for each listed item, please.
1. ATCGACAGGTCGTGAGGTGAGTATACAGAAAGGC
2. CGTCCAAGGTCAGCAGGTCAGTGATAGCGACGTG

1. 0.537
2. 1.26
